// compounds with reported pIC50 on RORc (Homo sapiens), multi-publication
One number for each entry, as −log10 of the molar value.

Below are some compounds; for each one, tell me its pIC50.
1. CC(=O)N1CCN(c2ccc(S(=O)(=O)N(c3cccc(Cl)c3)C(C)C)cc2)CC1
2. C[C@@H]1COC(=O)N1C[C@@]12CC[C@@H](c3cc(-c4c(F)cccc4F)nnc31)C2(C)C
3. CC1(C)[C@H]2CC[C@]1(c1ccnc(N3CCN(S(C)(=O)=O)CC3)n1)c1nnc(-c3c(F)cccc3F)cc12
4. CC(C)(O)c1cc(-c2cncc([C@@]34CC[C@@H](c5cc(-c6c(F)cccc6F)nnc53)C4(C)C)n2)ccn1
5. Cc1noc(C)c1-c1ccc(CN2[C@@H](C)CCC(c3ccccc3)S2(=O)=O)c(F)c1 (stereo partly drawn)
6. Cc1nnc(-c2nccc([C@@]34CC[C@@H](c5cc(-c6c(F)cccc6F)nnc53)C4(C)C)n2)o1
7. CC1(C)[C@H]2CC[C@]1([C@@H]1CN(C(=O)c3ccc(=O)[nH]n3)CCO1)c1nnc(-c3c(F)cccc3F)cc12

Result ::
1. 5.80
2. 6.99
3. 8.49
4. 8.25
5. 6.27
6. 7.38
7. 6.63

Below are some compounds; for each one, tell me its pIC50.
1. CC(=O)N1CCC(OCC(O)CO)(c2cc(F)c(CN3[C@@H](C)CC[C@H](c4ccccc4)S3(=O)=O)cc2F)CC1 (stereo partly drawn)
2. CC(C)CNC(=O)[C@]12CC[C@H](c3cc(-c4c(F)cccc4F)nnc31)C2(C)C
3. Cc1cc(-c2ccnc([C@@]34CC[C@@H](c5cc(-c6c(F)cccc6F)nnc53)C4(C)C)n2)no1
4. CC1(C)[C@H]2CC[C@]1(CN1CCNC1=O)c1nnc(-c3c(F)cccc3F)cc12
5. CC(=O)N1CCN(c2ccc(S(=O)(=O)N(CC(F)(F)F)c3cccc(Cl)c3)cc2)CC1
6. CC1(C)[C@H]2CC[C@]1(c1ccnc(N3C[C@H](O)[C@@H](O)C3)n1)c1nnc(-c3c(F)cccc3F)cc12
7. CC(C)CN(Cc1ccc(-c2ccc(C(=O)N(C)C)cc2)cc1)S(=O)(=O)Cc1ccccc1

Result ::
1. 7.67
2. 5.81
3. 8.37
4. 6.49
5. 6.52
6. 6.76
7. 6.02

---

// compounds with reported log10 of IC50 on RORc (Homo sapiens), multi-publication
Recall that a logarithmic scale is used here: each number is log10 of IC50 in nM.

Worked examples, 5 compounds total:
[
  {
    "COMPOUND": "C[C@H]1CCC(c2ccccc2)S(=O)(=O)N1Cc1ccc(-c2ccc(S(N)(=O)=O)cc2)cc1F (single isomer, unassigned)",
    "log10 of IC50": 1.94
  },
  {
    "COMPOUND": "CCOC(=O)/C=C/C1(c2ccc(CN3[C@@H](C)CC[C@H](c4ccccc4)S3(=O)=O)c(F)c2)CC1",
    "log10 of IC50": 1.73
  },
  {
    "COMPOUND": "CC1(C)[C@H]2CC[C@]1(c1cccc(N3CCN(CCO)C3=O)n1)c1nnc(-c3c(F)cccc3F)cc12",
    "log10 of IC50": 1.42
  },
  {
    "COMPOUND": "CC[C@H](C[C@@]12CC[C@@H](c3cc(-c4c(F)cccc4F)nnc31)C2(C)C)C(N)=O",
    "log10 of IC50": 1.92
  },
  {
    "COMPOUND": "CC(=O)N1CCN(c2ccc(CN3[C@@H](C)CCC(c4ccsc4)S3(=O)=O)c(F)c2)CC1 (single isomer, unassigned)",
    "log10 of IC50": 2.09
  }
]

Below are some compounds; for each one, tell me its log10 of IC50.
1. C[C@H]1CC[C@H](c2ccccc2)S(=O)(=O)N1Cc1ccc(C2(C(=O)NCC3CC3)CCOCC2)cc1F
2. C[C@H]1CC[C@H](c2ccccc2)S(=O)(=O)N1Cc1cc(F)c(C2(N)COC2)cc1F
3. C[C@H]1CC[C@H](c2ccccc2)S(=O)(=O)N1Cc1ccc(C2(OCC(N)=O)COC2)cc1F
4. CC(C)CN(c1cccc(Cl)c1)S(=O)(=O)c1ccc(N2CCC(O)CC2)cc1
5. CC1(C)[C@@H]2C[C@H](F)[C@@]1(C)c1nnc(-c3ccccc3F)cc12
6. CC1(C)[C@H]2CC[C@]1([C@H]1CCC(=O)NC1)c1nnc(-c3c(F)cccc3F)cc12

Result ::
[1.92, 1.85, 0.90, 2.89, 2.99, 2.33]

Below are some compounds; for each one, tell me its log10 of IC50.
1. CC1(C)[C@H]2CC[C@]1(c1cncc(-c3cnc(CO)o3)n1)c1nnc(-c3c(F)cccc3F)cc12
2. CC1(C)[C@H]2CC[C@]1([C@@H]1CN(c3ccccn3)CCO1)c1nnc(-c3c(F)cccc3F)cc12
3. COc1ccnc([C@@]23CC[C@@H](c4cc(-c5c(F)cccc5F)nnc42)C3(C)C)n1
4. CC1(C)[C@@H]2CC[C@@]1(C(=O)N1CCC1)c1nnc(-c3c(F)cccc3F)cc12
5. C[C@H]1CC[C@H](c2ccccc2)S(=O)(=O)N1Cc1cc(F)c([C@@H](CC2COC2)C(N)=O)cc1F
6. CNC(=O)N1CCO[C@H]([C@@]23CC[C@@H](c4cc(-c5c(F)cccc5F)nnc42)C3(C)C)C1

Result ::
1: 0.83; 2: 2.61; 3: 1.38; 4: 1.64; 5: 1.49; 6: 1.58

Below are some compounds; for each one, tell me its log10 of IC50.
1. CC(C)CN(Cc1ccc(-c2cnn(C)c2)s1)S(=O)(=O)Cc1ccccc1
2. C[C@H]1CC[C@H](c2ccccc2)S(=O)(=O)N1Cc1ccc(OCC2(CO)CCOCC2)cc1F

Result ::
2.79
1.91
